- TEST_DESCRIPTION: Tmax in Sprague-Dawley rat at 10 mg/kg, po by LC-MS/MS analysis
- Format: ADME, organism-based
- CONDITION_LABEL: in vivo
MEASURED_ENDPOINT: Tmax (min)
# value in min; strip the unit string

Tmax recorded for this compound, "COC[C@H](C)Oc1cc(Oc2ccc(C(=O)N3CCC3)cc2)cc(C(=O)Nc2nc3c(s2)CN(C(=O)OC(C)(C)C)CC3)c1" , is 34.8

----------
- MEASURED_ON: Hexokinase-4 (Homo sapiens, UniProt P35557)
- TEST_DESCRIPTION: Activation of recombinant human liver glucokinase 2 assessed as assessed as reduction in Km for glucose in presence of 5 mM glucose by G6PDH coupled assay
Reported EC50 is given for each of the following molecules.

molecule=COC[C@H](C)Oc1cc(Oc2ccc(C(=O)N3CCC3)cc2)cc(C(=O)Nc2nc3c(s2)CN(C(=O)OC(C)(C)C)CC3)c1 readout_value="50 nM"
molecule="COCC(C)Oc1cc(Oc2ccc(S(C)(=O)=O)cc2)cc(C(=O)Nc2nc3c(s2)CCCC3)c1 (stereo not drawn)" readout_value="30 nM"

Next molecule, EC50 to be filled in.
Notebook: COCC(C)Oc1cc(Oc2ccc(C(=O)N3CCC3)cc2)cc(C(=O)Nc2nc3c(s2)CN(C(=O)OC(C)(C)C)CC3)c1 (stereo not drawn) , EC50 read as 150 nM

----------
- TEST_DESCRIPTION: AUC (0 to infinity) in Sprague-Dawley rat at 10 mg/kg, po by LC-MS/MS analysis
- Format: ADME, organism-based
- Set-up: dose 10 mg/kg, time infinity, route oral
- CONDITION_LABEL: in vivo
MEASURED_ENDPOINT: AUC(0-inf) (ng·h/mL)
Lab book: enter the figure in ng·h/mL, no units written.

"COC[C@H](C)Oc1cc(Oc2ccc(C(=O)N3CCC3)cc2)cc(C(=O)Nc2nc3c(s2)CN(C(=O)OC(C)(C)C)CC3)c1" has a reported AUC(0-inf) of 7580

----------
- MEASURED_ON: Hexokinase-4 (Homo sapiens)
- TEST_DESCRIPTION: Activation of recombinant human liver glucokinase 2 assessed as […] in presence of 5 mM glucose by G6PDH coupled assay
Overview of reported pEC50 across a group of compounds:
By convention, pEC50 is the negative base-10 log of a molar concentration.

The examples below pair each entry with its known result.
compound="COCC(C)Oc1cc(Oc2ccc(S(C)(=O)=O)cc2)cc(C(=O)Nc2nc3c(s2)CN(C(C)C)CC3)c1 (configuration not stated)" measured_endpoint=pEC50 readout_value=5.15
compound="COCC(C)Oc1cc(Oc2ccc(S(C)(=O)=O)cc2)cc(C(=O)Nc2nc3c(s2)CN(c2cccnc2)CC3)c1 (configuration not stated)" measured_endpoint=pEC50 readout_value=5.96
compound="COCC(C)Oc1cc(Oc2ccc(C(=O)N3CCC3)nc2)cc(C(=O)Nc2nc3c(s2)CN(C(=O)OC(C)(C)C)CC3)c1 (configuration not stated)" measured_endpoint=pEC50 readout_value=6.06
compound=COC[C@H](C)Oc1cc(Oc2ccc(C(=O)N3CCC3)cc2)cc(C(=O)Nc2nc3c(s2)N(C(=O)OC(C)(C)C)CCC3)c1 measured_endpoint=pEC50 readout_value=5.22
compound=COC[C@H](C)Oc1cc(Oc2ccc(C(=O)N3CCC3)cc2)cc(C(=O)Nc2nc3c(s2)CN(C(=O)OC(C)(C)C)CC3)c1 measured_endpoint=pEC50 readout_value=6.80

Input COCC(C)Oc1cc(Oc2ccc(C(=O)N(C)C)cc2)cc(C(=O)Nc2nc3c(s2)CN(C(=O)OC(C)(C)C)CC3)c1 (configuration not stated) . Output pEC50: 7.05

----------
- MEASURED_ON: Hexokinase-4 (Homo sapiens, UniProt P35557)
- Sequence (P35557 whole entry): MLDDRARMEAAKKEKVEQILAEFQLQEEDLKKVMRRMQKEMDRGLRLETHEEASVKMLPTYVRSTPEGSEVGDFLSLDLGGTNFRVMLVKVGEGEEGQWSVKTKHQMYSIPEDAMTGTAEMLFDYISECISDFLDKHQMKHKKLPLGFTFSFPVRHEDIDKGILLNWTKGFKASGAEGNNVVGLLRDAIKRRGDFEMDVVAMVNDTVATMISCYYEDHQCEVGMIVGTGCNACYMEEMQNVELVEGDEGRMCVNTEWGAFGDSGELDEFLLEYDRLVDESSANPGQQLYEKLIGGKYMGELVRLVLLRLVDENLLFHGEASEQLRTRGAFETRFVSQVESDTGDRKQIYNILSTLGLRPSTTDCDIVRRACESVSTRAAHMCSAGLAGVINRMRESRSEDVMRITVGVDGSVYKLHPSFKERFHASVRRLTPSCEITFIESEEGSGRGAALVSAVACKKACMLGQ
- TEST_DESCRIPTION: Activation of recombinant human liver glucokinase 2 assessed as […] in presence of 5 mM glucose by G6PDH coupled assay
MEASURED_ENDPOINT: pEC50
Expect pEC50 as a plain number equal to -log10 of the molar concentration.

Reference set, count: 6
compound="COCC(C)Oc1cc(Oc2ccc(S(C)(=O)=O)nc2)cc(C(=O)Nc2nc3c(s2)CN(C(=O)OC(C)(C)C)CC3)c1 (configuration not stated)" measured_on="Hexokinase-4 (Homo sapiens, UniProt P35557)" measured_endpoint=pEC50 readout_value=6.70
compound=COC[C@H](C)Oc1cc(Oc2ccc(C(=O)N3CCC3)cc2)cc(C(=O)Nc2nc3c(s2)CN(c2ncccn2)CC3)c1 measured_on="Hexokinase-4 (Homo sapiens, UniProt P35557)" measured_endpoint=pEC50 readout_value=6.77
compound=COC[C@H](C)Oc1cc(Oc2ccc(C(=O)N3CCC3)cc2)cc(C(=O)Nc2nc3c(s2)CNCC3)c1 measured_on="Hexokinase-4 (Homo sapiens, UniProt P35557)" measured_endpoint=pEC50 readout_value=5.95
compound="COCC(C)Oc1cc(Oc2ccc(S(C)(=O)=O)cc2)cc(C(=O)Nc2nc3c(s2)CN(c2ccncc2)CC3)c1 (configuration not stated)" measured_on="Hexokinase-4 (Homo sapiens, UniProt P35557)" measured_endpoint=pEC50 readout_value=6.68
compound="COCC(C)Oc1cc(Oc2ccc(S(=O)(=O)N3CCC3)cc2)cc(C(=O)Nc2nc3c(s2)CN(C(=O)OC(C)(C)C)CC3)c1 (configuration not stated)" measured_on="Hexokinase-4 (Homo sapiens, UniProt P35557)" measured_endpoint=pEC50 readout_value=6.05
compound=COC[C@@H](C)Oc1cc(Oc2ccc(C(=O)N3CCC3)cc2)cc(C(=O)Nc2nc3c(s2)CN(C(=O)OC(C)(C)C)CC3)c1 measured_on="Hexokinase-4 (Homo sapiens, UniProt P35557)" measured_endpoint=pEC50 readout_value=5.59

We now examine a further compound.
Looking up "C[C@@H](CO)Oc1cc(Oc2ccc(C(=O)N3CCC3)cc2)cc(C(=O)Nc2nc3c(s2)CN(C(=O)OC(C)(C)C)CC3)c1" , I found its pEC50 recorded as 5.89

----------
The compounds listed here are annotated with their EC50.
- MEASURED_ON: Hexokinase-4 (Homo sapiens, UniProt P35557)
- TEST_DESCRIPTION: Activation of recombinant human liver glucokinase 2 assessed as […] in presence of 5 mM glucose by G6PDH coupled assay
Kindly answer with a numeric value in nM, unit omitted.

compound=COC[C@H](C)Oc1cc(Oc2ccc(C(=O)N3CCC3)cc2)cc(C(=O)Nc2nc3c(s2)CN(CCO)CC3)c1 measured_on="Hexokinase-4 (Homo sapiens, UniProt P35557)" measured_endpoint=EC50 unit_tag=nM readout_value=4600
compound="COCC(C)Oc1cc(Oc2ccc(S(C)(=O)=O)cc2)cc(C(=O)Nc2nc3c(s2)CN(C)CC3)c1 (stereo not drawn)" measured_on="Hexokinase-4 (Homo sapiens, UniProt P35557)" measured_endpoint=EC50 unit_tag=nM readout_value=8420
compound=CC(C)(C)OC(=O)N1CCc2nc(NC(=O)c3cc(Oc4ccc(S(C)(=O)=O)cc4)cc(OC4CCCCC4)c3)sc2C1 measured_on="Hexokinase-4 (Homo sapiens, UniProt P35557)" measured_endpoint=EC50 unit_tag=nM readout_value=550
compound=COC[C@H](C)Oc1cc(Oc2ccc(C(=O)N3CCC3)c(F)c2)cc(C(=O)Nc2nc3c(s2)CN(C(=O)OC(C)(C)C)CC3)c1 measured_on="Hexokinase-4 (Homo sapiens, UniProt P35557)" measured_endpoint=EC50 unit_tag=nM readout_value=330

// EC50 lookup, compound = "CCOC(=O)N1CCc2nc(NC(=O)c3cc(Oc4ccc(C(=O)N5CCC5)cc4)cc(O[C@@H](C)COC)c3)sc2C1" , result: 230

For COCC(C)Oc1cc(Oc2ccc(S(C)(=O)=O)cc2)cc(C(=O)Nc2nc3c(s2)CN(c2ccccn2)CC3)c1 (stereo not drawn) the compound record lists EC50 as 890

Notebook: "COCCN1CCc2nc(NC(=O)c3cc(Oc4ccc(C(=O)N5CCC5)cc4)cc(O[C@@H](C)COC)c3)sc2C1" , EC50 read as 210
